# testTarget: T1, NagR-DBD (Bacillus subtilis, UniProt O34817 1-75)
# T1 sequence: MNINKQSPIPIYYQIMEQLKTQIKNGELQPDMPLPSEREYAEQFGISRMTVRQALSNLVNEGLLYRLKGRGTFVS
# protocolText: SPR; 1:1 steady state; SPR: HBS-EP pH 7.4, 25 C, biotinylated DNA on SA chip; DNA for EMSA/SEC annealed in 20 mM Tris-HCl pH 7.5, 150 mM NaCl; crystal 4WWC: 0.1 M Bis-Tris pH 6.5, 25% PEG 3500, 292 K
# assayConditions: protein: recombinant; tags: N-terminal His6 with thrombin site (pET15b); chain copies: 2; label: 5'-biotin on strand 1; blunt
measuredEndpoint: pKd
Scale for pKd: -log10 of concentration given in mol/L; no unit attached.

Data request: Report pKd for 26mer native nagAB dsDNA (dsDNA) DNA 1: GCTCAGCTGGTCTAGATCACTAGTCT DNA 2: AGACTAGTGATCTAGACCAGCTGAGC please.
Data returned: 6.91
